- protocol summary: LNP size, PDI and zeta potential by Dynamic Light Scattering (Method A)
- Type: physicochemical
- setup conditions: LNP formulated with the lipid, DLS
- Protocol: The synthesized lipids were tested in term of in vitro transfection efficacy and toxicity on HeLa cells. In order to perform the mentioned biological tests, appropriate LNPs had to be formulated from the synthesized lipids. The formulation technique was different in Method A and B. The particle size, polydispersity index (PDI) and zeta potential of resulting LNPs were determined by means of Dynamic Light Scattering technique (DLS). […]
Listed here: items and their measured Zeta potential (mV).
Answer format: value, then unit.

Entry CCCCCCCC/C=C\CCCCCCCCOC(=O)C(C)(C)CC(OCCCCCCCC/C=C\CCCCCCCC)O[Si](C)(C)OCCCCCCN(CCCO)CCCO (stereo not shown) [Example 88] ; Zeta potential (mV) = −7.76 mV

Query CCCCCCCC/C=C\CCCCCCCCOC(CCCCCCC/C=C\CCCCCCCC)O[Si](C)(C)OCCCCCCN(CCO)CCO (stereo not shown) [Example 47] yields Zeta potential (mV) of −8.469 mV

// field: Zeta potential (mV); key: CCCCC/C=C\C/C=C\CCCCCCCCO[Si](C)(C)OC(CCCCCCC/C=C\CCCCCCCC)OCCCN(C)C (stereo not shown) [Example 81] ; value = −25.24 mV

Notebook: CCCCC/C=C\C/C=C\CCCCCCCCOC(CCCCCCC/C=C\CCCCCCCC)O[Si](C)(C)OCCCCCCN(CCO)CCO (stereo not shown) [Example 46] , Zeta potential (mV) read as −7.772 mV

Sure, the documented Zeta potential (mV) for CCCCC/C=C\C/C=C\CCCCCCCCOC(CCCCCCC/C=C\C/C=C\CCCCC)O[Si](C)(C)OCCCCCCN(CCCCO)CCCCO (stereo not shown) [Example 62] is −10.74 mV

Entry CCCCCCCC/C=C\CCCCCCCCOC(=O)C(C)(C)CC(OCCCCCCCC/C=C\CCCCCCCC)O[Si](C)(C)OCCCCCCN(C)CCO (stereo not shown) [Example 93] ; Zeta potential (mV) = −14.61 mV

Noted for CCCCC/C=C\C/C=C\CCCCCCCCOC(CCCCCCC/C=C\C/C=C\CCCCC)O[Si](C)(C)OCCCCCCN1CCN(CCO)CC1 (stereo not shown) [Example 58] : its Zeta potential (mV) reads −11.86 mV

// field: Zeta potential (mV); key: CCCCCCCC/C=C\CCCCCCCCOC(=O)C(C)(C)CC(OCCCCCCCC/C=C\CCCCCCCC)O[Si](C)(C)OCCCCCCN1CCCC1CO (stereo not shown) [Example 90] ; value = −16.19 mV

Briefly, Zeta potential (mV) measured for CCCCC/C=C\C/C=C\CCCCCCCCOC(CCCCCCC/C=C\C/C=C\CCCCC)O[Si](C)(C)OCCCCCCN(C)CCCCO (stereo not shown) [Example 60] : −7.785 mV
